Numbers sourced from PubChem BioAssay (NCI).

tested on: 786-0 renal; assay: NCI tumour cell line growth inhibition, 48 h
Readout name: GI50

Recorded result, "COc1ccc2c(c1)C(=O)c1c-2c(OCCN(C)C)nc2cc(OC)ccc12" , GI50: 1460 nM

Recorded result, "Cc1cc(Nc2cc(CN3CCOCC3)c3nc(C)c(Cc4ccc(Cl)cc4F)n3n2)n[nH]1" , GI50: 1670 nM

Recorded result, "COc1ccccc1-c1ccc2nc(NC(=O)Nc3cc(C(F)(F)F)cc(C(F)(F)F)c3)sc2c1" , GI50: 1440 nM

Recorded result, "O=C(CCc1ccco1)NC1CCN(CC2(c3ccc(Cl)cc3)CCC2)CC1" , GI50: 12600 nM

Recorded result, OC(COc1cccc2ccccc12)CN1CCN(c2ccc(Cl)cc2)CC1 (centres undefined) , GI50: 16300 nM

Recorded result, "COc1ccc2c(c1)CC[C@@H]1[C@@H]2CC[C@]2(C)c3[nH]ncc3C[C@@H]12" , GI50: 18200 nM

Recorded result, COc1cc(/C=C/C(=O)NC[C@]2(O)CCC3C4CCc5cc(O)ccc5C4CCC32C)ccc1O (some centres undefined) , GI50: 11300 nM

Recorded result, CCN1CCC2(CC1)NC(=O)c1c(c3ccc(Cl)c(Cl)c3n1C)C2C#N (centres undefined) , GI50: 1700 nM

Recorded result, "Cc1cc(C(=O)N[C@@H](CCC(=O)O)C(=O)O)sc1CC[C@@H]1CNc2nc(N)[nH]c(=O)c2C1" , GI50: < 10 nM

----------
system: DMS 273 small cell lung; assay: NCI tumour cell line growth inhibition, 48 h
Readout name: TGI

Past entries and their recorded results:
Compound	Tested target	Readout name	Endpoint result
Cc1cccc(Cl)c1NC(N)=S	DMS 273 small cell lung	TGI	> 100 µM
CCOc1ccccc1NC(=O)C(=O)C(C(=O)c1ccc2ccccc2c1)C1OC(=O)c2ccccc21 (centres undefined)	DMS 273 small cell lung	TGI	31.7 µM
CC(C)[C@](O)(C(=O)OCC1=CC[N+]2([O-])CC[C@@H](O)[C@@H]12)[C@H](C)O (some centres undefined)	DMS 273 small cell lung	TGI	> 10000 µM

Turning now to a further compound:
Recorded result, CC1(C(=O)NCCN(CCNC(=O)C2(C)CC3(C)CC(C)(C2)C(=O)NC3=O)CCNC(=O)C2(C)CC3(C)CC(C)(C2)C(=O)NC3=O)CC2(C)CC(C)(C1)C(=O)NC2=O (centres undefined) , TGI: > 100 µM

----------
system: U251 CNS
Readout name: GI50

Past entries and their recorded results:
>>> print(df.to_string())
                                   compound  endpoint_result
0  COc1ccc2c(c1)CC[C@@H]1[C@@H]2CC[C@]2(C)c3[nH]ncc3C[C@@H]12          18.2 µM
1  O=C1OCC2=C1C(c1cccc(C(F)(F)F)c1)c1cc3c(cc1N2CCO)OCO3 (stereo not given)          1.82 µM
2  COc1cc(/C=C/C(=O)NC[C@]2(O)CCC3C4CCc5cc(O)ccc5C4CCC32C)ccc1O (stereo not given in full)          8.47 µM
3  C=CCC(N[C@@H](CO)c1ccccc1)c1ccccn1 (stereo not given in full)         > 100 µM
4      CCOC(=O)/C(=C/c1ccccc1)C(=O)c1ccccc1          3.22 µM

Recorded result, C=CC[N+]1(CCO)CCN=C1CCCCCCCCCCCCC (stereo not given) , GI50: 1.33 µM

----------
system: SNB-75 CNS; assay: NCI tumour cell line growth inhibition, 48 h
Classify by measured TGI: y if it is equal to or exceeds 6 µM, n if it is smaller.

In [3]: df
Out[3]:
                                chem_smiles  classification
0  CC(C)(C)CC(C)(C)N(CSc1ccc(Cl)cc1)CSc1ccc(Cl)cc1               n
1         COc1cccc2c1nc1cccc(OC)c1[n+]2[O-]               y
2  CSC1=Nc2c(c(C)c(-c3ccccc3)n2CCCCl)C2=NC(=O)CN12               y
3  COc1ccc2nc3ccccc3c(NCCCCCN(CCCl)CCCl)c2c1               n
4  COc1cc(-c2cc(-c3nc4cc(Cl)c(Cl)cc4[nH]3)[nH]n2)cc(OC)c1OC               y

In the following, a different molecule is considered.
q: Check this molecule for TGI at or above 6 µM: "NC(=O)c1ccc2nc(-c3ccc(C4(N)CCC4)cc3)c(-c3ccccc3)n2n1"
a: n

----------
tested on: RPMI-8226 leukemia; assay: NCI tumour cell line growth inhibition, 48 h; in the data active = GI50 below about 0.43 µM; inactive = the rest
Output constraint: value belongs to T for active, F for inactive

A selection of reference data follows.
>>> df
                                   compound  classification
0  O=C1c2ccc3c4c(ccc(c24)C(=O)N1CCCNCc1ccccc1)C(=O)N(CCCNCc1ccccc1)C3=O               T
1  Cc1cc(Nc2cc(CN3CCOCC3)c3nc(C)c(Cc4ccc(Cl)cc4F)n3n2)n[nH]1               F
2  COc1cc(-c2nc(-c3nnc(-c4ccc(F)c(Cl)c4)o3)c3ccccn23)cc(OC)c1OC               F
3  C[n+]1c2cc(N)ccc2cc2ccc(N)cc21 (tested in a mixture with another compound)               T
4  COc1nc2c(cc1S(=O)(=O)c1ccccc1)CCc1c-2cnn1Cc1ccccc1               F

q: What is the recorded call for this compound in the test? "COc1cc(CNc2nc3cc(N)cc(N)c3nc2-c2ccccc2)cc(OC)c1OC"
a: F

q: What is the recorded call for this compound in the test? "COc1ccc(N2CCN(CN3CCN(c4ccc(OC)cc4)C3)C2)cc1"
a: F

q: What is the recorded call for this compound in the test? CCCCCCCCCCCCOC1C(CNCC2OC3OC(C)(C)OC3C2NC(=O)Nc2ccc(C(F)(F)F)cc2)OC2OC(C)(C)OC21 (centres undefined)
a: F

q: What is the recorded call for this compound in the test? "N.N.N.N.N.N#N.[Cl-].[Os+7]"
a: F

----------
Reported TGI values for a set of compounds
test system: OVCAR-3 ovarian; assay: NCI tumour cell line growth inhibition, 48 h
The response must be a number in µM with no trailing unit.

Compound	Tested target	Readout name	Units symbol	Endpoint result
COc1cc(OC)cc(-c2ccc(-c3ccc(C(=N)N)s3)s2)c1	OVCAR-3 ovarian	TGI	µM	3.76
OC(COc1cccc2ccccc12)CN1CCN(c2ccc(Cl)cc2)CC1 (stereo unspecified)	OVCAR-3 ovarian	TGI	µM	69.1

Turning now to a further compound:
Recorded result, "NCCn1ccc(NC(c2ccccc2)(c2ccccc2)c2ccccc2)nc1=O" , TGI: 52.6

----------
test system: NCI-H522 lung; experiment: NCI tumour cell line growth inhibition, 48 h
Reported TGI values for a set of compounds

>>> print(df.to_string())
                       compound  readout_name  endpoint_result
0  c1ccc(CCCNc2nnnc3ccccc23)cc1           TGI         > 100 µM

Turning now to a further compound:
Recorded result, C[n+]1c2cc(N)ccc2cc2ccc(N)cc21 (tested in a mixture with another compound) , TGI: 0.839 µM

----------
test system: 786-0 renal; assay: NCI tumour cell line growth inhibition, 48 h
Reported log10 TGI values for a set of compounds
Give log10 of TGI, with TGI taken in µM.

Past entries and their recorded results:
Compound	log10 TGI
Nc1nc(N)c2ncn(-c3ccc(Cl)c(Cl)c3)c2n1	1.44
O=c1oc2ccccc2cc1-c1csc(Nc2cc(Cl)cc(Cl)c2)n1	1.11
CC(=O)OCC1OC(O[C@@H]2C[C@H]3C(C)(C)[C@H](OC(C)=O)CC[C@]3(C)[C@H]3CC[C@]4(C)C(=CC[C@H]4[C@@H](C)C[C@@H](O)[C@H](O)C(C)(C)O)[C@@]32C)C(O)C(O)C1O (stereo partly specified)	1.48
COC(=O)CCCC(=O)NC1=C(Nc2ccccc2)C(=O)c2ccccc2C1=O	1.53
COc1ccc2[nH]c3c(C)c4cc[n+](C)cc4c(C)c3c2c1	0.74
CCOC(=O)/C(=C\c1ccnc2ccccc12)P(=O)(OCC)OCC	0.79
COc1ccc2nc3ccccc3c(NCCCCCN(CCCl)CCCl)c2c1	-0.86
CCCCCCCCCCCCOC1C(CNCC2OC3OC(C)(C)OC3C2NC(=O)Nc2ccc(C(F)(F)F)cc2)OC2OC(C)(C)OC21 (stereo unspecified)	1.16
C[n+]1c2cc(N)ccc2cc2ccc(N)cc21 (tested in a mixture with another compound)	0.36
COc1cc2c(cc1O)[C@H](C)C(c1ccccc1OC)O2 (stereo partly specified)	1.70

Recorded result, "C/C(=N/NC(=S)N(C)CCc1ccccn1)c1cnccn1" , log10 TGI: 0.83
